Target: human dopamine transporter (Homo sapiens)
Construct: expressed in transfected cells
Sequence (Q01959 whole entry): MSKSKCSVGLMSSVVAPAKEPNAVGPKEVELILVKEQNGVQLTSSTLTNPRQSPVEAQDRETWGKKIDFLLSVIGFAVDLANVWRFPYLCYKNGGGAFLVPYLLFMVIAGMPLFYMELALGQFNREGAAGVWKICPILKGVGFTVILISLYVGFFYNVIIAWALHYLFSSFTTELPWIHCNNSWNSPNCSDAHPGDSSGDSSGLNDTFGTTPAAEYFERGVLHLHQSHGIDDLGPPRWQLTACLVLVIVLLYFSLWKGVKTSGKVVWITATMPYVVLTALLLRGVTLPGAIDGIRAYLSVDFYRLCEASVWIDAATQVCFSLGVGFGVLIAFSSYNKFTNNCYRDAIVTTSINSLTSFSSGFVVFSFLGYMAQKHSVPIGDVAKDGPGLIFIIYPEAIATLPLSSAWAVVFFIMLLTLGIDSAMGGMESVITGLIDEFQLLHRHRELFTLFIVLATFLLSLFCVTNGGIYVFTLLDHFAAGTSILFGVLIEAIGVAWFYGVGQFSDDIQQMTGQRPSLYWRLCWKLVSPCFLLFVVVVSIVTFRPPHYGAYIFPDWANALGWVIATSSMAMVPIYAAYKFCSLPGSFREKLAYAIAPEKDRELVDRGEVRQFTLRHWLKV
Assay: Inhibitory action on human dopamine transporter ([3H]-dopamine uptake in CHO cells)
Type: cell-based
Details: CHO, compound 1 μM; relative to inhibitory activity of 100 μM Nomifensine as 100%; read-out: inhibitory rate (%)
Procedure: SRα promoter contained in pTB1411 described in JP-A-H5-076385 was cleaved with restriction enzyme […](manufactured by TAKARA BIO INC.), blunt-ended, further cleaved with restriction enzyme EcoRI (manufactured by TAKARA BIO INC.), and fragmented. […] The inhibitory activity of each compound (10 μM) was calculated as a relative activity value based on the inhibitory activity of 100 μM Nomifensine (dopamine transporter inhibitor) as 100%. […]
Where a name gives a salt, the structure may show the parent alone.
Decision: inhibition at 1 µM >= 50% yields Met, all other cases yield Not met.

{"columns": ["compound", "tgt", "assigned_class"],
 "data": [
  ["OC[C@H]1CNCCO[C@@H]1c1cc2ccccc2s1 (racemic) [Example 410, monohydrochloride]", "human dopamine transporter (Homo sapiens)", "Not met"],
  ["CCOC(=O)[C@H]1NCCOC[C@@H]1c1ccc(Cl)c(Cl)c1 (racemic) [Example 412, monohydrochloride]", "human dopamine transporter (Homo sapiens)", "Met"],
  ["CS(=O)(=O)NCC1(c2ccc(Cl)c(Cl)c2)CNCCCO1 (racemic) [Example 24, monohydrochloride]", "human dopamine transporter (Homo sapiens)", "Not met"],
  ["CS(=O)(=O)NCCC[C@@H]1OCCNC[C@H]1c1ccc(Cl)c(Cl)c1 (racemic) [Example 520, monohydrochloride]", "human dopamine transporter (Homo sapiens)", "Not met"]
]}

Q: Is reported inhibition at 1 µM greater than or equal to 50% here: CCOCC(=O)NC[C@@H]1CNCCO[C@H]1c1ccc(Cl)c(F)c1 [Example 40, monohydrochloride]
A: Not met

Q: Is reported inhibition at 1 µM greater than or equal to 50% here: OC[C@@H]1CNCCO[C@H]1c1ccc(F)c(Cl)c1 [Example 284, monofumarate]
A: Not met

Q: Is reported inhibition at 1 µM greater than or equal to 50% here: OC[C@@H]1CNCCO[C@H]1c1ccc(Cl)c(F)c1 [Example 301, monohydrochloride]
A: Not met

Q: Is reported inhibition at 1 µM greater than or equal to 50% here: CC(C)OCC(=O)NC[C@@H]1CNCCO[C@H]1c1ccc(Cl)c(F)c1 [Example 41, monohydrochloride]
A: Not met

Q: Is reported inhibition at 1 µM greater than or equal to 50% here: CC(=O)N(C)C[C@@H]1CNCCO[C@H]1c1ccc(Cl)c(Cl)c1 [Example 99, monohydrochloride]
A: Met

Q: Is reported inhibition at 1 µM greater than or equal to 50% here: O=c1cccnn1C[C@@H]1OCCNC[C@H]1c1ccc(Cl)c(Cl)c1 [Example 515, monohydrochloride]
A: Met

Q: Is reported inhibition at 1 µM greater than or equal to 50% here: NS(=O)(=O)NCC1(c2ccc(Cl)c(Cl)c2)CCNCCO1 (racemic) [Example 22, monohydrochloride]
A: Not met

Q: Is reported inhibition at 1 µM greater than or equal to 50% here: CC(=O)N[C@@H]1CNCCO[C@@H]1c1ccc(Cl)c(Cl)c1 (racemic) [Example 62, monohydrochloride]
A: Met

Q: Is reported inhibition at 1 µM greater than or equal to 50% here: CS(=O)(=O)C[C@@H]1CNCCOC1c1ccc(F)c(Cl)c1 (mixture of isomers) [Example 281, monohydrochloride]
A: Not met

Q: Is reported inhibition at 1 µM greater than or equal to 50% here: CS(=O)(=O)N[C@@H]1CNCCO[C@H]1c1ccc(Cl)c(Cl)c1 [Example 265, monohydrochloride]
A: Met

Q: Is reported inhibition at 1 µM greater than or equal to 50% here: O=C(O)c1cccnc1NC[C@@H]1CNCCO[C@H]1c1ccc(Cl)c(Cl)c1 [Example 176, monohydrochloride]
A: Not met

* * *

Target: human serotonin transporter (Homo sapiens, UniProt P31645)
Construct: expressed in transfected cells
Sequence (P31645 whole entry): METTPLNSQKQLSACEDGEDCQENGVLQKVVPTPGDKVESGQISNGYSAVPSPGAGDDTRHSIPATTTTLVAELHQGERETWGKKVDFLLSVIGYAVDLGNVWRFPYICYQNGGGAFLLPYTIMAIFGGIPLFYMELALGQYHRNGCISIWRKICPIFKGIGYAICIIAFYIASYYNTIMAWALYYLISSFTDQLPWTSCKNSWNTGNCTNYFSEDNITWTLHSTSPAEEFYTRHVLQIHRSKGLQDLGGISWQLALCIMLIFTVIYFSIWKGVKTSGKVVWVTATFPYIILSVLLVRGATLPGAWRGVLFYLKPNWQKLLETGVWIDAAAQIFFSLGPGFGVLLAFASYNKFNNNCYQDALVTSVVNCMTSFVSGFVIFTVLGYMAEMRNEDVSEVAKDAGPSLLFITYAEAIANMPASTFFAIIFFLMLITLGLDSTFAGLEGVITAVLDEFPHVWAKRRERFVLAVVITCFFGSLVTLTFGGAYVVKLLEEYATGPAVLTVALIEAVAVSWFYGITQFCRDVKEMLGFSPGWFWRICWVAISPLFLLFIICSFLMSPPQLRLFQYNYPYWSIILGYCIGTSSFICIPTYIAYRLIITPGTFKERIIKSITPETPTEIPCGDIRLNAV
Assay: Inhibitory action on human serotonin transporter ([3H]-5-hydroxytryptamine uptake in CHO cells)
Assay type: cell-based
Conditions: CHO, compound 1 μM; relative to inhibitory activity of 10 μM Paroxetine as 100%; read-out: inhibitory rate (%)
Counter-ions that a name gives are not always drawn.
Decision: inhibition at 1 µM >= 70% yields Y, all other cases yield N.

Known results for compounds:
{"columns": ["compound", "assigned_class"],
 "data": [
  ["OCCOC[C@@H]1OCCNC[C@H]1c1ccc(Cl)c(Cl)c1 [Example 496, monohydrochloride]", "N"],
  ["OCCOC[C@@]1(c2ccc(Cl)c(Cl)c2)CCNCCO1 [Example 416, monohydrochloride]", "Y"]
]}

Q: Is reported inhibition at 1 µM greater than or equal to 70% here: O=c1cccnn1C[C@H]1OCCNC[C@H]1c1ccc(Cl)c(Cl)c1 [Example 481, monohydrochloride]
A: Y

Q: Is reported inhibition at 1 µM greater than or equal to 70% here: CS(=O)(=O)N[C@@H]1CNCCO[C@H]1c1ccc(Cl)c(Cl)c1 [Example 265, monohydrochloride]
A: Y

Q: Is reported inhibition at 1 µM greater than or equal to 70% here: OC[C@H]1CNCCO[C@@H]1c1ccc(Cl)c(F)c1 [Example 302, monohydrochloride]
A: Y

Q: Is reported inhibition at 1 µM greater than or equal to 70% here: OC[C@H]1OCCNC[C@@H]1c1ccc(Cl)c(Cl)c1 [Example 487, monohydrochloride]
A: N

Q: Is reported inhibition at 1 µM greater than or equal to 70% here: OC[C@H]1OCCNC[C@H]1c1ccc(Cl)c(Cl)c1 [Example 447, monohydrochloride]
A: N

Q: Is reported inhibition at 1 µM greater than or equal to 70% here: O=c1cccnn1C[C@@H]1OCCNC[C@H]1c1ccc(Cl)c(Cl)c1 [Example 515, monohydrochloride]
A: Y

Q: Is reported inhibition at 1 µM greater than or equal to 70% here: O=C(Cn1cncn1)NC[C@@H]1OCCNC[C@@H]1c1ccc(Cl)c(Cl)c1 (racemic) [Example 457, monohydrochloride]
A: N

Q: Is reported inhibition at 1 µM greater than or equal to 70% here: O=C(CC(F)(F)F)NC[C@@H]1CNCCO[C@H]1c1ccc(Cl)c(F)c1 [Example 314, monohydrochloride]
A: N

Q: Is reported inhibition at 1 µM greater than or equal to 70% here: O=C(CO)NC[C@@H]1CNCCO[C@H]1c1ccc(Cl)c(F)c1 [Example 315, monohydrochloride]
A: N

Q: Is reported inhibition at 1 µM greater than or equal to 70% here: OC[C@@H]1CNCCO[C@H]1c1ccc(Cl)c(Cl)c1 [Example 72, monohydrochloride]
A: Y

Q: Is reported inhibition at 1 µM greater than or equal to 70% here: CC(=O)N(C)C[C@]1(O)CNCCO[C@H]1c1ccc(Cl)c(F)c1 (relative stereo)
A: Y

Q: Is reported inhibition at 1 µM greater than or equal to 70% here: CS(=O)(=O)C[C@@H]1CNCCOC1c1ccc(F)c(Cl)c1 (mixture of isomers) [Example 281, monohydrochloride]
A: Y

Q: Is reported inhibition at 1 µM greater than or equal to 70% here: O=C(O)c1ccnn1C[C@@H]1CNCCO[C@H]1c1ccc(Cl)c(Cl)c1 [Example 181, monohydrochloride]
A: Y

Q: Is reported inhibition at 1 µM greater than or equal to 70% here: O=c1[nH]c(-c2cccn(C[C@@H]3CNCCO[C@H]3c3ccc(Cl)c(Cl)c3)c2=O)no1 [Example 31, monohydrochloride]
A: Y

* * *

Target: human serotonin transporter (Homo sapiens, UniProt P31645)
Construct: expressed in transfected cells
Assay: Inhibitory action on human serotonin transporter ([3H]-5-hydroxytryptamine uptake in CHO cells)
Format: cell-based
Conditions: CHO, compound 1 μM; relative to inhibitory activity of 10 μM Paroxetine as 100%; read-out: inhibitory rate (%)
Where a name gives a salt, the structure may show the parent alone.
Decision: inhibition at 1 µM >= 70% yields true, all other cases yield false.

Known results for compounds:
{"columns": ["compound", "assigned_class"],
 "data": [
  ["O=C(O)c1cccn(C[C@@H]2CNCCO[C@H]2c2ccc(Cl)c(F)c2)c1=O [Example 44, monohydrochloride]", "false"],
  ["OCCC[C@@H]1CNCCO[C@H]1c1ccc(Cl)c(Cl)c1 [Example 212, monohydrochloride]", "true"],
  ["O=C1CNC(=O)N1C[C@]1(c2ccc(Cl)c(Cl)c2)CCNCCO1 [Example 438, monohydrochloride]", "true"]
]}

Q: Is reported inhibition at 1 µM greater than or equal to 70% here: O=S(=O)(NC[C@H]1OCCNC[C@H]1c1ccc(Cl)c(Cl)c1)C(F)F [Example 470, monohydrochloride]
A: false

Q: Is reported inhibition at 1 µM greater than or equal to 70% here: CS(=O)(=O)C[C@H]1CNCCOC1c1ccc(F)c(Cl)c1 (mixture of isomers) [Example 12, monohydrochloride]
A: true

Q: Is reported inhibition at 1 µM greater than or equal to 70% here: CCOCC(=O)NC[C@@H]1CNCCO[C@H]1c1ccc(Cl)c(F)c1 [Example 40, monohydrochloride]
A: true

Recorded values, source patent US20130267494A1.
